Reference source: PubChem BioAssay (NCI)

Tested on: SK-MEL-5 melanoma
Assay: NCI-60 one-dose screen, 48 h (100 = growth as untreated, 0 = no growth, -100 = all killed)
Details: 10 µM unless noted
Compounds without any hit were thinned out: in the full panel of roughly 83,000, 20% have a hit.
API: label(entry) gives y if the entry's growth is strictly smaller than 50%; on equality or larger values it gives n.

Consider C=C1C(=O)O[C@H]2[C@H]1CC/C(Cn1cc(-c3ccccc3C(F)(F)F)nn1)=C\CC[C@@]1(C)O[C@@H]21 . Does its growth lie strictly below 50%?
y

Consider C/C(=C\c1csc(C)n1)[C@@H]1C[C@@H]2O[C@]2(C)CCC[C@H](C)[C@H](O)[C@@H](C)C(=O)C(C)(C)[C@@H](O)CC(=O)N1 . Does its growth lie strictly below 50%?
y

Consider O=C(CCCn1c2c(sc3ccccc32)c(=O)n2nnc(-c3ccccc3)c12)NCCc1cnc[nH]1 . Does its growth lie strictly below 50%?
y

Consider Nc1ccccc1C#C/C=C\C#Cc1cccc(O)c1 . Does its growth lie strictly below 50%?
y

Consider c1ccc([P+](CCC[P+](c2ccccc2)(c2ccccc2)c2ccccc2)(c2ccccc2)c2ccccc2)cc1 . Does its growth lie strictly below 50%?
n

Consider COC1=CC(c2ccc[nH]2)=N/C1=C\c1[nH]c(C)c(C(=O)CCCCC(=O)Oc2ccc3c(c2)CCC2C3CC[C@]3(C)[C@@H](O)CC[C@@H]23)c1C (stereo partly drawn) . Does its growth lie strictly below 50%?
y

Consider COc1ccc(NC(=S)/N=c2\oc3c(OC)cccc3cc2-c2cc3ccccc3[nH]2)cc1 . Does its growth lie strictly below 50%?
n
